Origin of the recorded values: paper PMC6006426

# Lookup of reported Cmax,u keyed by entry
- PROTOCOL: Clinical plasma pharmacokinetic parameters of TKIs
- Format: in vivo, human
- TEST CONTEXT: calculated unbound plasma concentration (Cmax x fu) from cited clinical parameters
I'd appreciate it if you included the unit after the number.

Answered examples (3):
CCN(CC)CCNC(=O)c1c(C)[nH]c(/C=C2\C(=O)Nc3ccc(F)cc32)c1C : 6.8 nM
C[C@@H](Oc1cc(-c2cnn(C3CCNCC3)c2)cnc1N)c1c(Cl)ccc(F)c1Cl : 84.8 nM
COc1cc2ncnc(Nc3ccc(F)c(Cl)c3)c2cc1OCCCN1CCOCC1 : 93.6 nM

Please find the next molecule below.
[Q] Fill in the blank: the reported Cmax,u of Cc1ccc(Nc2nccc(N(C)c3ccc4c(C)n(C)nc4c3)n2)cc1S(N)(=O)=O is ____.
[A] 10.1 nM
